Hi there, I'd appreciate the recorded IC50 for every entry that follows.
# Test system: Smad signaling pathway of TGFβRI
# experimental-details: Inhibition of Smad signaling pathway of TGFβRI (3TP-lux luciferase reporter in HepG2 cell)
# Format: cell-based
# conditions-used: Homo sapiens; HepG2 cell, 3TP-lux plasmid, 18 hours; read-out: IC50 on the inhibition of Smad signaling pathway of TGFβRI
Write down the value, and be sure its unit follows.

>  <compound>
Cc1cccc(-c2nn3c(c2-c2ccc4ncnn4c2)C2CCC3CC2)n1

>  <IC50>
11 nM

$$$$
>  <compound>
Cc1cccc(-c2nn3c(c2-c2ccnc(-c4ccc(S(C)(=O)=O)cc4)c2)C2CCC3CC2)n1

>  <IC50>
87 nM

$$$$
>  <compound>
Cc1cccc(-c2nc3n(c2-c2ccc4ncc(OCCO)nc4c2)C2CCC3C2)n1 (centres unmarked)

>  <IC50>
6 nM

$$$$
>  <compound>
NC(=O)c1ccnc2ccc(-c3c(-c4ccc(F)cn4)nc4n3[C@H]3CC[C@@H]4C3)cc12

>  <IC50>
24 nM

$$$$
>  <compound>
NC(=O)c1nnc2ccc(-c3c(-c4ccc(F)cn4)nc4n3C3CCC4C3)cn12 (centres unmarked)

>  <IC50>
82 nM

$$$$

Report IC50 for each item below.
1. Cc1cccc(-c2nc3n(c2-c2ccnc(OCCO)c2)C2CCC3C2)n1 (centres unmarked)
2. Cc1cccc(-c2nc3n(c2-c2ccnc(NC[C@H](C)O)c2)[C@H]2CC[C@@H]3C2)n1
3. Cc1cccc(-c2nc3n(c2-c2ccnc(-c4ccc(C(N)=O)cc4)c2)C2CCC3C2)n1 (centres unmarked)
4. Cc1cccc(-c2nn3c(c2-c2ccnc(NCCO)c2)C2CCC3CC2)n1
5. Cc1cccc(-c2nn3c(c2-c2ccc4nccc(C(N)=O)c4c2)C2CCC3CC2)n1
6. Cc1cccc(-c2nc3n(c2-c2ccnc(-c4ccc(S(C)(=O)=O)cc4)c2)[C@H]2CC[C@@H]3C2)n1

1. 86 nM
2. 88 nM
3. 86 nM
4. 61 nM
5. 18 nM
6. 19 nM

---

# experimental-details: Pharmacokinetics assay in rats after intragastrical administration
# Assay type: in vivo
# conditions-used: both sexes, Sprague-Dawley, rat, plasma, po, SD rats, 2 mg/kg, read-out: Half-life T1/2 (converted)
Label satisfied when half-life >= 2 h; otherwise not satisfied.

>  <chemical-smiles>
Cc1cccc(-c2nc3n(c2-c2ccc4nccc(C(N)=O)c4c2)[C@@H]2CC[C@H]3C2)n1

>  <qualitative-label>
not satisfied

$$$$
>  <chemical-smiles>
Cc1cccc(-c2nn3c(c2-c2ccnc(-c4ccc(S(C)(=O)=O)cc4)c2)C2CCC3CC2)n1

>  <qualitative-label>
not satisfied

$$$$
>  <chemical-smiles>
Cc1cccc(-c2nc3n(c2-c2ccc4nnc(C(N)=O)n4c2)[C@H]2CC[C@@H]3C2)n1

>  <qualitative-label>
not satisfied

$$$$

Please check the record Cc1cccc(-c2nc3n(c2-c2ccnc(-c4ccc(S(C)(=O)=O)cc4)c2)[C@H]2CC[C@@H]3C2)n1 and state if its half-life is at or above 2 h. not satisfied

Please check the record NC(=O)c1ccnc2ccc(-c3c(-c4ccc(F)cn4)nc4n3[C@H]3CC[C@@H]4C3)cc12 and state if its half-life is at or above 2 h. satisfied

Please check the record Cc1cccc(-c2nc3n(c2-c2ccc4nccc(C(N)=O)c4c2)[C@H]2CC[C@@H]3C2)n1 and state if its half-life is at or above 2 h. satisfied
